test system: ryegrass, Italian; assay: Test C preemergence; format: in vivo, Lolium multiflorum; conditions: Test C, preemergence, 125 g ai/ha; 0 to 100 scale (0 no effect, 100 complete control)
Cut-off 80 on Ryegrass, Italian plant response rating, inclusive. At or above means yes; below means no.

compound	class
C[C@H]1CN(C(=O)c2cc(-n3cnc(C4CCC4)n3)cc3c2OCCO3)c2cccc(Cl)c2O1	no
COc1ccc(-n2cnc(C(C)C)n2)cc1C(=O)N1C[C@H](C)Oc2c(F)cccc21	yes
Cc1ccc(-n2cnc(C[S+](C)[O-])n2)cc1C(=O)N1C[C@H](C)Oc2c(Cl)cccc21 (stereo partly shown)	no
Cc1cn(-c2cccc(C(=O)N3C[C@H](C)Oc4c(C)cccc43)c2)cn1	no
Cc1ccc(-n2cnc(C3CCC3)n2)cc1C(=O)N1CC(C(F)(F)F)Oc2c(Cl)cccc21 (single isomer, unassigned)	yes

====

Catalogue of compounds with associated Plant response rating, Oat, Wild
test system: oat, wild; experiment: Test A postemergence; type: in vivo, Avena fatua; details: 125 g ai/ha, postemergence, 10 days, visual injury, 0 to 100 scale (0 no effect, 100 complete control)

compound	Plant response rating, Oat, Wild
C[C@H]1CN(C(=O)c2cccc(-n3cncn3)c2)c2cccc(OC(F)(F)F)c2O1 [Compound 48]	10
Cc1cccc2c1O[C@@H](C)CN2C(=O)c1cccc(-n2cncn2)c1F [Compound 53]	0
Cc1cccc2c1O[C@@H](C)CN2C(=O)c1cccc(-n2cnc(C3CC3)n2)c1 [Compound 54]	20
Cc1cccc2c1O[C@@H](C)CN2C(=O)c1cc(-n2cncn2)ccc1Cl [Compound 60]	50
Cc1cccc2c1O[C@@H](C)CN2C(=O)c1ccc(F)c(-n2cncn2)c1 [Compound 52]	20

====

test system: corn; test: Test A postemergence; format: in vivo, Zea mays; details: 125 g ai/ha, postemergence, 10 days; 0 to 100 scale, 0 no effect, 100 complete control
Catalogue of molecules with associated Corn plant response rating

test smiles	Corn plant response rating
Cc1cccc2c1O[C@@H](C)CN2C(=O)c1cccc(-n2cnc(COC(C)C)n2)c1	10
CCc1ncn(-c2ccc(C)c(C(=O)N3C[C@H](C)Oc4c(C)cccc43)c2)n1	50
CC(C)Cc1ncn(-c2cccc(C(=O)N3C[C@H](C)Oc4c(Cl)cccc43)c2)n1	20
CCc1ncn(-c2ccc(CC)c(C(=O)N3C[C@H](C)Oc4c(Cl)cccc43)c2)n1	60
COc1ccc(-n2cnc(C(C)(C)C)n2)cc1C(=O)N1C[C@H](C)Oc2c(Cl)cccc21	30
Cc1ccc(-n2cnc(C3CCC3)n2)cc1C(=O)N1C[C@H](C)Oc2c(C)cccc21	30
CCc1ccc(-n2cnc(C(C)(C)C)n2)cc1C(=O)N1C[C@H](C)Oc2c(Cl)cccc21	20
C[C@H]1CN(C(=O)c2cccc(-n3cnc(Br)n3)c2)c2cccc(Cl)c2O1	10
CC(C)c1ncn(-c2ccc(OC(F)F)c(C(=O)N3C[C@H](C)Oc4c(Cl)cccc43)c2)n1	90
CCc1ccc(-n2cnc(C3CCC3)n2)cc1C(=O)N1C[C@H](C)Oc2c(Cl)cccc21	40
COCCc1ncn(-c2cccc(C(=O)N3C[C@H](C)Oc4c(C)cccc43)c2)n1	90
CC(C)c1ncn(-c2ccc(OC(F)(F)F)c(C(=O)N3C[C@H](C)Oc4c(Cl)cccc43)c2)n1	40
CCOc1ccc(-n2cnc(C(C)C)n2)cc1C(=O)N1C[C@H](C)Oc2c(Cl)cccc21	60
CCc1ncn(-c2cccc(C(=O)N3C[C@H](C)Oc4c(Cl)cccc43)c2)n1	60
CC(C)c1ncn(-c2ccc(O)c(C(=O)N3C[C@H](C)Oc4c(Cl)cccc43)c2)n1	20
Cc1cccc2c1O[C@@H](C)CN2C(=O)c1cccc(-n2cnc(C3CCCCC3)n2)c1	0
Cc1cccc2c1O[C@@H](C)CN2C(=O)c1cccc(-n2cnn(C(C)C)c2=O)c1	0
C[C@H]1CN(C(=O)c2cccc(-n3cnc(C(C)(C)C)n3)c2)c2cccc(Cl)c2O1	30

====

test system: green foxtail; experiment: Test C preemergence; format: in vivo, Setaria viridis; settings: Preemergence, 500 g ai/ha; visual rating after 10 days, 0 to 100 scale (0 no effect, 100 complete control)
Text: […]
Catalogue of compounds with associated Plant response rating, Foxtail, Green

test smiles	Plant response rating, Foxtail, Green
COc1ccc(-n2cnc(C(C)C)n2)cc1C(=O)N1C[C@H](C)Oc2c(C)cccc21	100
CC(C)c1ncn(-c2cc(OC(F)F)c(OC(F)F)c(C(=O)N3C[C@H](C)Oc4c(Cl)cccc43)c2)n1	0
CSCc1ncn(-c2ccc(C)c(C(=O)N3C[C@H](C)Oc4c(Cl)cccc43)c2)n1	100
Cc1cccc2c1O[C@@H](C)CN2C(=O)c1cc(-n2cnc(C(C)C)n2)cc2ccoc12	100
COC[C@H]1CN(C(=O)c2cc(-n3cnc(C(C)(C)C)n3)ccc2C)c2cccc(Cl)c2O1	100
COc1c(F)cc(-n2cnc(C(C)C)n2)cc1C(=O)N1C[C@H](C)Oc2c(Cl)cccc21	100
CC(C)c1ncn(-c2ccc(SC(F)(F)F)c(C(=O)N3C[C@H](C)Oc4c(Cl)cccc43)c2)n1	90
COc1ccc(-n2cncn2)cc1C(=O)N1C[C@H](C)Oc2c(Cl)cccc21	100
CC(C)n1cnc(-c2cccc(C(=O)N3C[C@H](C)Oc4c(Cl)cccc43)c2)n1	0
COC[C@H]1CN(C(=O)c2cc(-n3cncn3)ccc2OC)c2cccc(Cl)c2O1	100
Cc1cccc2c1O[C@@H](C)CN2C(=O)c1cccc(-n2cnc(C#N)c2)c1	80
C[C@H]1CN(C(=O)c2cc(-n3cncn3)cc3c2OCCO3)c2cccc(Cl)c2O1	100
COC[C@H]1CN(C(=O)c2cc(-n3cnc(C4CC4)n3)ccc2OC)c2cccc(Cl)c2O1	100
COc1c(C)cc(-n2cnc(C(C)C)n2)cc1C(=O)N1C[C@H](C)Oc2c(Cl)cccc21	100
Cc1ccc(-n2cnc(C(C)(F)F)n2)cc1C(=O)N1C[C@H](C)Oc2c(Cl)cccc21	100
CCc1ncn(-c2cc(OC)cc(C(=O)N3C[C@H](C)Oc4c(Cl)cccc43)c2)n1	100

====

test system: foxtail, giant; assay: Test A postemergence; assay type: in vivo, Setaria faberi; details: 125 g ai/ha, postemergence, 10 days; 0 to 100 scale, 0 no effect, 100 complete control

molecule	Foxtail, Giant plant response rating
Cc1cccc2c1O[C@@H](C)CN2C(=O)c1cccc(-n2cnn(C(C)C)c2=O)c1 [Compound 118]	10
COc1ccc(-n2cnc(C(C)(C)C)n2)cc1C(=O)N1C[C@H](C)Oc2c(Cl)cccc21 [Compound 83]	20
COc1ccc(-n2cnc(C)n2)cc1C(=O)N1C[C@H](C)Oc2c(Cl)cccc21 [Compound 89]	90
CCCCc1ncn(-c2cccc(C(=O)N3C[C@H](C)Oc4c(C)cccc43)c2)n1 [Compound 86]	10

====

tested on: oat, wild; assay: Test C postemergence; assay type: in vivo, Avena fatua; details: Postemergence, 500 g ai/ha, 10 days, visual 0 to 100 scale (0 no effect, 100 complete control)
Cut-off 30 on Plant response rating, Oat, Wild, inclusive. At or above means Met; below means Not met.

compound	class
COC[C@H]1CN(C(=O)c2cccc(-n3cnc(C(C)(C)O)n3)c2)c2cccc(Cl)c2O1	Met
CCc1ccc(-n2cnc(C(C)C)n2)cc1C(=O)N1C[C@H](C)Oc2c(C)cccc21	Met
Cc1ccc(-n2cnc(C(C)(F)F)n2)cc1C(=O)N1C[C@H](C)Oc2c(Cl)cccc21	Met
Cc1ccc(-n2cnc(C(C)(C)O)n2)cc1C(=O)N1C[C@H](C)Oc2c(C)cccc21	Met
Cc1ccc(-n2cnc(C[S+](C)[O-])n2)cc1C(=O)N1C[C@H](C)Oc2c(Cl)cccc21 (some centres unmarked)	Met
Cc1ccc(-n2cnc(C3CCC3)n2)cc1C(=O)N1CC(C(F)(F)F)Oc2c(Cl)cccc21 (single isomer, unassigned)	Met
C[C@H]1CN(C(=O)c2cccc(-n3cnc(C(C)(C)O)n3)c2)c2cccc(Cl)c2O1	Met
COC[C@H]1CN(C(=O)c2cc(-n3cnc(C4CCC4)n3)ccc2OC)c2cccc(Cl)c2O1	Met
COc1cc(C(=O)N2C[C@H](C)Oc3c(Cl)cccc32)cc(-n2cnc(C(C)C)n2)c1	Met
CC(C)n1cnc(-c2cccc(C(=O)N3C[C@H](C)Oc4c(Cl)cccc43)c2)n1	Not met
Cc1cccc2c1O[C@@H](C)CN2C(=O)c1cc(-n2cnc(C(C)C)n2)cc2occc12	Met
Cc1ccc(-n2cnc(C3(C(F)(F)F)CCC3)n2)cc1C(=O)N1C[C@H](C)Oc2c(Cl)cccc21	Not met
COc1cc(-n2cnc(C(C)C)n2)cc(C(=O)N2C[C@H](C)Oc3c(Cl)cccc32)c1OC	Not met
Cc1cccc2c1O[C@H](C)CN2C(=O)c1cccc(-c2ncn(C(C)C)n2)c1	Not met
CCc1ncn(-c2cc3c(c(C(=O)N4C[C@H](C)Oc5c(Cl)cccc54)c2)OCCO3)n1	Met
CSCc1ncn(-c2ccc(C)c(C(=O)N3C[C@H](C)Oc4c(Cl)cccc43)c2)n1	Met
Cc1ccc(-n2cnc(C(C)C)n2)cc1C(=O)N1C[C@H](C)Oc2c1cccc2C(F)(F)F	Met
CCc1ncn(-c2ccc(C)c(C(=O)N3CC(C(F)(F)F)Oc4c(Cl)cccc43)c2)n1 (single isomer, unassigned)	Met
Cc1cccc2c1O[C@@H](C)CN2C(=O)c1cccc(-n2cnc(N(C)C)n2)c1	Met
CC(C)c1ncn(-c2ccc(S(=O)(=O)C(F)(F)F)c(C(=O)N3C[C@H](C)Oc4c(Cl)cccc43)c2)n1	Not met
C[C@H]1CN(C(=O)c2cccc(-c3ncccn3)c2)c2cccc(Cl)c2O1	Not met
CCn1cnc(-c2cccc(C(=O)N3C[C@H](C)Oc4c(Cl)cccc43)c2)n1	Not met
COc1cc(C(=O)N2C[C@H](C)Oc3c(Cl)cccc32)cc(-n2cnc(C(C)(C)C)n2)c1	Not met
COc1c(C)cc(-n2cnc(C(C)C)n2)cc1C(=O)N1C[C@H](C)Oc2c(Cl)cccc21	Met
CCn1cnc(-c2cccc(C(=O)N3C[C@H](C)Oc4c(C)cccc43)c2)n1	Not met
